tested.system: human OATP1B1 (Homo sapiens)
Sequence (Q9Y6L6 whole entry): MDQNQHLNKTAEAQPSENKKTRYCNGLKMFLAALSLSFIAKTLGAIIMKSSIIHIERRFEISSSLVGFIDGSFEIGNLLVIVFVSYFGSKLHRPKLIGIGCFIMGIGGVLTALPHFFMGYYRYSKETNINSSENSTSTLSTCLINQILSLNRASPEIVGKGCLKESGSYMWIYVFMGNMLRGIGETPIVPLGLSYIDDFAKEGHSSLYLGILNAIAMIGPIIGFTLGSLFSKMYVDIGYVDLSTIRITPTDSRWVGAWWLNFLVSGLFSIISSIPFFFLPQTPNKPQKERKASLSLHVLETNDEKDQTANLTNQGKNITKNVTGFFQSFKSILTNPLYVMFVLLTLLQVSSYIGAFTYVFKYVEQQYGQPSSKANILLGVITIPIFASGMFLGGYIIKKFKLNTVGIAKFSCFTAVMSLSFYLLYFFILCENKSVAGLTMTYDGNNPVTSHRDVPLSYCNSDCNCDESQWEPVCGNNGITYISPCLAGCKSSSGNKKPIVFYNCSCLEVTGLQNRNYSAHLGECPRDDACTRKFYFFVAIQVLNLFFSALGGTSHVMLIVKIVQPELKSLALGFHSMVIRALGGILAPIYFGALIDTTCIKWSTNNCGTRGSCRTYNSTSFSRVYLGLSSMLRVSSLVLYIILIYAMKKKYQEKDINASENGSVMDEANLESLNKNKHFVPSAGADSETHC
test.details: cell-based
measured.metric: pKi
// pKi is dimensionless: -log10 of concentration (M)

Worked examples follow.
1. C[C@]12CC[C@@H]3c4ccc(O)cc4CC[C@H]3[C@@H]1CC[C@@H]2O [Estradiol]    5.48
2. CC(C)OC(=O)C(C)(C)Oc1ccc(C(=O)c2ccc(Cl)cc2)cc1 [Fenofibrate]    3.98
3. C[C@H](CCC(=O)O)[C@H]1CC[C@H]2[C@@H]3CC[C@@H]4C[C@H](O)CC[C@]4(C)[C@H]3CC[C@]12C [Lithocholic acid]    5.92
4. C[C@H](CCC(=O)O)[C@H]1CC[C@H]2[C@@H]3[C@H](O)C[C@@H]4C[C@H](O)CC[C@]4(C)[C@H]3C[C@H](O)[C@]12C [Cholic acid]    4.60
5. C[C@@]12CCC[C@H]1[C@@H]1CC[C@H]3CCCC[C@]3(C)[C@H]1CC2    3.43
6. NC(Cc1cc(I)c(Oc2cc(I)c(O)c(I)c2)c(I)c1)C(=O)O (stereo not shown) [Thyroxine]    5.46

--- query ---
CC#C[C@]1(O)CC[C@H]2[C@@H]3CCC4=CC(=O)CCC4=C3[C@@H](c3ccc(N(C)C)cc3)C[C@@]21C [Mifepristone] yielded pKi of 5.66

Entry source: paper PMC2748668
